Listed below: pIC50 values for each entry.
- Test system: A549
- Protocol: Cytotoxicity against apoptotic-resistant human A549 cells assessed as growth inhibition after 72 hrs by MTT-based colorimetric assay
- Assay type: functional, cell-based
- Assay setup: Homo sapiens, A549, 72 h
pIC50: −log10 of the molar value.

{"columns": ["Smiles string", "Readout relation", "pIC50"],
 "data": [
  ["Cn1c2cnc1OCC/C=C\\CCCCOc1ccccc1-2", "=", 4.13],
  ["CCCCCCOc1ncc(-c2ccccc2OC)n1C", "=", 4.43],
  ["C=CCCCCOc1ccccc1-c1cnc(OCCOCC=C)n1C", "=", 4.47],
  ["Cn1c2cnc1OCCCCCCCCOc1cc3ccccc3cc1-2", "=", 4.59],
  ["C=CCCCCOc1ccc(C)cc1-c1cnc(OCCC=C)n1C", "=", 4.23],
  ["Cn1c2cnc1NC(=O)CCCCCCCCCOc1ccccc1-2", "=", 4.37],
  ["Cc1ccc2c(c1)-c1cnc(n1C)OCCCCCCCCO2", "=", 4.39],
  ["C=CCCCCOc1ncc(-c2cc(C(F)(F)F)ccc2OC)n1C", "=", 4.21],
  ["C=CCCCCOc1ncc(I)n1C", "<", 4.00],
  ["C=CCCCCOc1cc2ccccc2cc1-c1cnc(OCCC=C)n1C", "=", 4.68],
  ["Cn1c2cnc1OCCCCCCCCCOc1ccccc1-2", "=", 4.16],
  ["C=CCCCCOc1cc2ccccc2cc1-c1cnc(OCCCCC=C)n1C", "=", 4.80]
]}
